test system: PRKCI; conditions: concentration: 1 μM, replicates: in singlicate; n = 1;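 further: KINOMEscan kinase panel screen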
readout_name: %Inh
Quick note: unit goes after the number.

Field: example entries. Status: answers known.
[
  {
    "compound": "O=C(Nc1ccccc1F)NC1CCN(c2ccnc(Nc3ccc(F)cc3)n2)C1 (centres unmarked)",
    "readout_name": "%Inh",
    "value_measured": "10%"
  },
  {
    "compound": "Nc1nc(-c2ccc3c(N)n[nH]c3c2)cc(N2CCCCC2)n1",
    "readout_name": "%Inh",
    "value_measured": "6%"
  },
  {
    "compound": "COC(=O)c1c(-c2ccccc2)c2cc(Cl)ccc2c(=O)n1Cc1ccc(S(C)(=O)=O)cc1",
    "readout_name": "%Inh",
    "value_measured": "8%"
  },
  {
    "compound": "O=C(c1ccc(-c2cc(-c3c[nH]nc3-c3ccccn3)ccn2)cc1)N1CCCC1",
    "readout_name": "%Inh",
    "value_measured": "100%"
  },
  {
    "compound": "C[C@@H]1CCN(C(=O)CO)C[C@@H]1N(C)c1ncnc2[nH]ccc12",
    "readout_name": "%Inh",
    "value_measured": "0%"
  },
  {
    "compound": "c1ccc(-c2ccc3c(-c4ccnc(Nc5ccc6c(c5)OCCO6)n4)cnn3n2)cc1",
    "readout_name": "%Inh",
    "value_measured": "9%"
  },
  {
    "compound": "O=C(Nc1n[nH]c2nc(-c3ccco3)c(Br)cc12)c1ccc(CN2CCCC2)cc1.O=C(O)[C@H](O)[C@@H](O)C(=O)O",
    "readout_name": "%Inh",
    "value_measured": "0%"
  }
]

Now let's try a different one.
Asked: // lookup %Inh | system=PRKCI | key= CC(C)N1CCC(n2cnc(-c3ccc(F)cc3)c2-c2ccnc(N)n2)CC1
Given back: 29%

----------
system: CDK8; details: concentration: 1 μM, replicates: in singlicate; n = 1
Attribute: %Inh
Please reply with the bare figure in % and do not write the unit itself.

Field: example entries. Status: answers known.
[
  {
    "compound": "CS(=O)(=O)CCNCc1nc(-c2ccc3ncnc(Nc4ccc(OCc5cccc(F)c5)c(Cl)c4)c3c2)cs1.Cl",
    "unit_name": "%",
    "%Inh": 3
  },
  {
    "compound": "NC(=O)c1sc(-n2cnc3ccccc32)cc1OCc1ccccc1F",
    "unit_name": "%",
    "%Inh": 37
  },
  {
    "compound": "Cn1cc(-c2ccc3c(c2)CCN3C(=O)Cc2cccc(C(F)(F)F)c2)c2c(N)ncnc21",
    "unit_name": "%",
    "%Inh": 34
  },
  {
    "compound": "Nc1nc(-c2ccc3c(N)n[nH]c3c2)cc(N2CCC[C@@H](C(=O)Nc3ccccc3)C2)n1.O=C(O)C(F)(F)F.O=C(O)C(F)(F)F",
    "unit_name": "%",
    "%Inh": 23
  },
  {
    "compound": "C[C@H]1CC[C@@H](C(=O)Nc2ccccc2)CN1c1cc(-c2ccc3c(N)n[nH]c3c2)nc(N)n1",
    "unit_name": "%",
    "%Inh": 14
  }
]

Asked: # input compound: Cl.Cn1ccc(-c2cccc(Nc3ccnc4cc(-c5nccs5)ccc34)c2)n1 ; wanted: its %Inh
Given back: 7

Asked: # input compound: COc1ccc(Nc2nccc(N3CCC(NC(=O)c4cccc(NC(C)=O)c4)C3)n2)cc1 (centres unmarked) ; wanted: its %Inh
Given back: 56

Asked: # input compound: Nc1nc(-c2ccccn2)c(-c2ccnc3ccccc23)s1 ; wanted: its %Inh
Given back: 56

Asked: # input compound: CNc1nccc(-c2c(-c3ccc(F)cc3)ncn2C2CCN(C)CC2)n1 ; wanted: its %Inh
Given back: 46

Asked: # input compound: O=C(Nc1ccccc1)Nc1ccc(Oc2ccc3nccn3n2)cc1 ; wanted: its %Inh
Given back: 23
